Assay: inhibitors of hydroxyurea-induced Chk1 phosphorylation, primary screen, imaging, HeLa, phospho-Chk1 antibody, percent positive cells (AID 1186)
Settings: hydroxyurea-induced phospho-Chk1 immunofluorescence imaging, higher = more signal
The following compounds are listed with their measured z-score values.
metric: z-score

compound	metric	val
CC1CC/C=C\[C@H]2OC34C=CCN(Cc5ccccc5)C(=O)[C@H]3N(CCCCCO)C(=O)[C@@H]4C2C(=O)O1 (some centres not stated)	z-score	-0.0458
O=C(CS)NCCCCCCNC(=O)[C@@H]1C[C@@H]2C(=O)N3CCC[C@H]3C(=O)N2[C@@H]1c1ccc(O)cc1	z-score	-0.0018
CCOC(=O)C1=C[C@@H](C(C)C)N(S(=O)(=O)c2ccc(C)cc2)[C@H]1c1ccc(C(C)C)cc1	z-score	0.25
COC(=O)[C@@]1(Cc2ccccc2)[C@H]2c3cc(C(=O)N4CCCC4)n(Cc4ccc(C)o4)c3C[C@H]2CN1C(=O)c1ccccc1	z-score	0.56
CCC(CC)C(O)C1C=CC2C(=O)N(c3ccccc3)C(=O)C2N1Nc1ccc(C#N)cc1 (configuration not stated)	z-score	0.288
COCCOC(=O)N1C(=O)[C@@]2(c3cc(C#CC4(O)CCCCCC4)ccc31)[C@H](C(=O)N1CCCCCCC1)[C@H]1C(=O)O[C@H](c3ccccc3)[C@H](c3ccccc3)N1[C@@H]2c1ccccc1OCCO	z-score	-0.0968
COc1ccc([Si](C)(C)[C@@H]2[C@@H](CC(=O)N3CCC[C@H]3CO)O[C@]3(C(=O)N(C)c4c(Br)cc(C)cc43)[C@H]2C)cc1	z-score	-0.477
